Data credit: patent US20230090901A1

TARGET_UNDER_TEST: L2 (DV1-GV2), soluble leucine zipper γδ TCR heterodimer of a delta variable 1 chain and a gamma variable 2 … (human)
Sequence (chain, as listed by the source mutant, chain 1 of 2): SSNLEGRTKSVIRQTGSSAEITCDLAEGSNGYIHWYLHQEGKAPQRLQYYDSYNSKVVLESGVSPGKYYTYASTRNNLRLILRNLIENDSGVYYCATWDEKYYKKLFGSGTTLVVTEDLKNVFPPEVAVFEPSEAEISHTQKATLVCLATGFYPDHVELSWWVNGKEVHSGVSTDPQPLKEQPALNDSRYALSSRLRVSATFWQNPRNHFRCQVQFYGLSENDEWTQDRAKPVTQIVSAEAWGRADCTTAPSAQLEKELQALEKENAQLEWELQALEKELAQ
Sequence (chain, as listed by the source mutant, chain 2 of 2): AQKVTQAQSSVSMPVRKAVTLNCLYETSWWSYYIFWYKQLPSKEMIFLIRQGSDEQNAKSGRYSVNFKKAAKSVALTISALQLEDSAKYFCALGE
TEST: DELFIA ELISA, coated antigen;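 note: binding of antibody supernatants or protein-A purified antibodies to plate-coated antigen (3 µg/ml recombinant TCR or BSA), 1 h incubation at room temperature, DELFIA readout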
Recorded DELFIA ELISA response (FU) values for a group of binders are listed next.
Please give a number only; it is taken to be in FU.

BINDER	UNITS_TEXT	OBSERVED_RESULT
G4_18 (antibody, human IgG1, V domains shown, also called 1254_P01_H04; clone G4_18) VH: EVQLVESGAEVKKPGASVKVSCKASGYTFTGYYMHWVRQAPGQGLEWMGRINPNSGGTNYAQKFQGRVTMTRDASISTAYMELSRLRSDDTAVYYCARDLDLSSLDYWGRGTLVTVSS VL: SSYELTQPPSVTESPGQTARITCSGDALAKQYAYWYQQKPGQAPVLVIYRDSERPSEIPERFSGSSSGTTVTLTISGVQAEDEADYYCQSADSSGTYTVFGGGTKLTVLG	FU	66

We next turn to a different binder, shown below.
[Q] Return reported DELFIA ELISA response (FU); argument: G4_10 (antibody, human IgG1, V domains shown, also called clone G4_10) VH: QVQLVESGGGVVQPGRPLRLSCAASGFTFSSYAMHWVRQAPGKGLEWVSAISGSGGSTYYADSVKGRFTISRDNSKNTLYLQMNSLRAEDTAVYYCAKDGAVDFWRNGMDVWGRGTLVTVSS VL: DIVMTQPPLSLPVTLGHPASISCKSSQSLEYSDGNTYLNWFQQRPGQSPRRLIYKVSNRDSGAPDRFSGSGSGTDFTLEISRVEAEDVGVYYCMQGTLWPPTFGQGTKVDIKR
[A] 109
